- System: Nucleic Acid
- ASSAY: Binding affinity to Escherichia coli pUC19 DNA assessed as reduction in DNA mobility to 5 to 80 uM by EMSA
- Format: nucleic-acid assay
The source made the active and inactive calls. The calls are words filed in the database; no cut-off is given here.
Bench note: report the call from label 1 = active, label 0 = inactive

Reference set (3 entries):
[
  {
    "ITEM_SMILES": "CCNC(=N)Nc1ccc2cc3ccc(NC(=N)NCC)cc3nc2c1.Cl.Cl.O",
    "QUALITATIVE_LABEL": "label 1"
  },
  {
    "ITEM_SMILES": "CCCNC(=N)Nc1ccc2cc3ccc(NC(=N)NCCC)cc3nc2c1",
    "QUALITATIVE_LABEL": "label 1"
  },
  {
    "ITEM_SMILES": "CCCCNC(=N)Nc1ccc2cc3ccc(NC(=N)NCCCC)cc3nc2c1",
    "QUALITATIVE_LABEL": "label 1"
  }
]

Call for entry CCCCCCNC(=N)Nc1ccc2cc3ccc(NC(=N)NCCCCCC)cc3nc2c1.Cl.Cl.O : label 0

Call for entry CCCCCNC(=N)Nc1ccc2cc3ccc(NC(=N)NCCCCC)cc3nc2c1.Cl.Cl.O : label 0

---

Listed next: entries and their corresponding Activity.
- Test system: Nucleic Acid
- ASSAY: Binding affinity to calf thymus DNA assessed as hypochromacity at 12.8 uM by UV-visible absorption spectroscopy
- EXPERIMENTAL_CONTEXT: Bos taurus
Please respond with the number in % and leave the unit unwritten.

# annotated cases, reported Activity shown
[
  {
    "ITEM_SMILES": "CCCNC(=N)Nc1ccc2cc3ccc(NC(=N)NCCC)cc3nc2c1",
    "OBSERVED_PROPERTY": "Activity",
    "MEASUREMENT": 32
  },
  {
    "ITEM_SMILES": "CCCCCCNC(=N)Nc1ccc2cc3ccc(NC(=N)NCCCCCC)cc3nc2c1.Cl.Cl.O",
    "OBSERVED_PROPERTY": "Activity",
    "MEASUREMENT": 42
  },
  {
    "ITEM_SMILES": "CCCCCNC(=N)Nc1ccc2cc3ccc(NC(=N)NCCCCC)cc3nc2c1.Cl.Cl.O",
    "OBSERVED_PROPERTY": "Activity",
    "MEASUREMENT": 31
  }
]

Lookup result for CCCCNC(=N)Nc1ccc2cc3ccc(NC(=N)NCCCC)cc3nc2c1 ; measured Activity: 17

Lookup result for CCNC(=N)Nc1ccc2cc3ccc(NC(=N)NCC)cc3nc2c1.Cl.Cl.O ; measured Activity: 23

---

- Test system: Nucleic Acid
- ASSAY: Binding affinity to calf thymus DNA by spectrofluorimetric titration assay
- Format: nucleic-acid assay
- EXPERIMENTAL_CONTEXT: Bos taurus
OBSERVED_PROPERTY: K
Respond with a number, then the unit of measure.

# annotated cases, reported K shown
[
  {
    "ITEM_SMILES": "CCCCNC(=N)Nc1ccc2cc3ccc(NC(=N)NCCCC)cc3nc2c1",
    "MEASUREMENT": "4.25 ×10⁵ /M"
  },
  {
    "ITEM_SMILES": "CCCNC(=N)Nc1ccc2cc3ccc(NC(=N)NCCC)cc3nc2c1",
    "MEASUREMENT": "5.01 ×10⁵ /M"
  }
]

Lookup result for CCCCCCNC(=N)Nc1ccc2cc3ccc(NC(=N)NCCCCCC)cc3nc2c1.Cl.Cl.O ; measured K: 1.25 ×10⁵ /M

Lookup result for CCCCCNC(=N)Nc1ccc2cc3ccc(NC(=N)NCCCCC)cc3nc2c1.Cl.Cl.O ; measured K: 2.36 ×10⁵ /M

Lookup result for CCNC(=N)Nc1ccc2cc3ccc(NC(=N)NCC)cc3nc2c1.Cl.Cl.O ; measured K: 5.26 ×10⁵ /M
